Target: human EHMT2 913-1193 (Homo sapiens, UniProt Q96KQ7)
Construct: recombinant purified human EHMT2 913-1193, Viva; purchased Viva
Sequence (Q96KQ7 913-1193): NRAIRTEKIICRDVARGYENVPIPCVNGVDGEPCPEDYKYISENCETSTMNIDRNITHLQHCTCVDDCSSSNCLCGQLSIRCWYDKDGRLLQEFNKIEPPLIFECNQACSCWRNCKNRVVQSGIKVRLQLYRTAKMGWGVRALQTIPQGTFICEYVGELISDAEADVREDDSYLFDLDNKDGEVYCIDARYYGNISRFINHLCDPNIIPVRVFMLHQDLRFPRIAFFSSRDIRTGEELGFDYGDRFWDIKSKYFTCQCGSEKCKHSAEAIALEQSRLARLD
Assay: EHMT2 enzyme assay on histone peptide substrate (EHMT2 PEP)
Assay type: biochemical
Settings: recombinant human EHMT2 913-1193, histone H3 1-15 peptide, balanced conditions; read-out: EHMT2 PEP (IC50 μM)
The entries below come with measured IC50 values attached.

CN1CCC(COc2cnc(NC3CCNCC3)nc2)C1 (stereo not drawn) [Compound 555]    > 10 µM

Q: Can you share its IC50? I mean this molecule: CCN1CC(C(O)Oc2cc(Nc3nc(C)cc(NC)n3)ccc2OC)C1 (stereo not drawn) [Compound 560]
A: 0.1 to 1 µM

Q: Now the same for CCCC1(Nc2nccc(NC)n2)CCNCC1 [Compound 545]
A: > 10 µM

###

Target: EHMT2 (Homo sapiens, UniProt Q96KQ7)
Construct: host or cells: MDA-MB-231
Assay: MDA-MB-231 H3K9me2 in-cell Western assay (EHMT2 ICW)
Type: cell-based
Conditions: Table III; MDA-MB-231 H3K9me2 in-cell Western; read-out: EHMT2 ICW (IC50 μM)
Experimental: RPMI/Glutamax medium, Penicillin-Streptomycin, Heat Inactivated Fetal Bovine Serum, and D-PBS were purchased from Life Technologies (Grand Island, N.Y., USA). […] Compound (100 nL) was added directly to 384-well cell plate. […] Plates were allowed to dry at room temperature then imaged on a Licor Odyssey Infrared Scanner (Licor Biosciences) which measured integrated intensity at 700 nm and 800 nm wavelengths. […] First, the ratio for each well was determined by: […]
measurement_kind: IC50

CNc1ccnc(Nc2cc(OCCCN3CCCC3)c(OC)cn2)c1 [Compound 305]    0.1 to 1 µM
CNc1cc(Nc2cc(OCCCN3CCCC3)c(OC)cn2)cnn1 [Compound 323]    > 10 µM
CNc1ccnc(Nc2ccc3cn(CCN(C)C)nc3c2)n1 [Compound 404]    > 10 µM

Q: Can you share its IC50? I mean this compound: CNc1cc(C)nc(Nc2cc(OCCCN3CCCC3)c(OC)cn2)n1 [Compound 303]
A: 1 to 10 µM

Q: Now the same for CNc1ccnc(Nc2ccc(OC)c(OCCCN3CCC4(COC4)C3)c2)n1 [Compound 284]
A: > 10 µM

Q: Now the same for CNc1cc(C)nc(Nc2ccc(OC)c(OCC3CCCN(C)C3)c2)n1 (stereo not drawn) [Compound 413]
A: 0.1 to 1 µM

Q: Now the same for COc1ccc(Nc2nccc(CNC3CCOCC3)n2)cc1OCCCNc1ccccc1 [Compound 365]
A: > 10 µM

Q: Now the same for CNc1cnnc(Nc2cc(OCCCN3CCCC3)c(OC)cn2)c1 [Compound 322]
A: 0.1 to 1 µM

Q: Now the same for CNc1cc(C)nc(Nc2ccc(OC)c(OCC3CCN(C)C3)c2)n1 (single isomer, unassigned) [Compound 417]
A: 1 to 10 µM
